Test system: NCI-H522 lung
Experiment: NCI-60 one-dose screen, 48 h
Settings: 10 µM
Method: Growth inhibition of the NCI-H522 human Non-Small Cell Lung tumor cell line is measured as a screen for anti-cancer activity. Cells are grown in 96 well plates and exposed to the test compound for 48 hours. Compounds are tested at a single concentration, which is 10^-5 M for most compounds. The reported endpoint is percent growth (GI% or GIPRCNT), where numbers from 0 - 100% represent growth inhibition, and numbers from -100% - 0 represent cell death. […]
This is part of a sample that, as a whole, favours compounds with a hit. Of some 83,000 tested, about 20% had one in any assay. Active and inactive are the calls of the source. How the source made its calls: active means growth percent below 10; inactive means the rest.
Valid outcomes are listed here; reply with one: active, inactive

Below are worked cases with known answers.
Molecule: Cc1ccccc1-c1cc(-c2ccc(Br)s2)[nH]c(=O)c1C#N
Assigned label: inactive
--
Molecule: Clc1ccc2c(c1)C[C@H]1C[C@@H](c3cccs3)N2O1
Assigned label: inactive
--
Molecule: CN1CCN(CCCn2c3c(sc4ncccc43)c(=O)n3nnc(-c4ccccc4)c23)CC1
Assigned label: active
--
Molecule: COC(=O)CCC(=O)c1ccccc1
Assigned label: inactive
--
Molecule: COc1ncnc2c1ncn2C/C(Br)=C(\Br)CCl
Assigned label: active
--
Molecule: O=C1CCC(N2C(=O)c3cccc(NCCOCCOCCNC(=O)c4cc5c(o4)C(=O)c4ccccc4C5=O)c3C2=O)C(=O)N1 (stereo not given)
Assigned label: active

Check the results log: what was the call for COc1ccc(C(=O)COc2cccc(/C=C3\CSc4ccc(C)cc4C3=O)c2)cc1 ?
inactive

Check the results log: what was the call for NS(=O)(=O)c1ccc(C(=O)N/N=C(\CS(=O)(=O)c2ccccc2)c2cc3cc(Br)ccc3o2)cc1 ?
inactive

Check the results log: what was the call for O=C(NCc1ccc(F)cc1)C1CN(c2ccc(Cl)cc2)N(c2ccc(Cl)cc2)C1=O (stereo not given) ?
inactive

Check the results log: what was the call for CC1(C)CC(=O)C2=C(C1)Nc1cc3c(cc1C2c1ccc(F)cc1)OCO3 (stereo not given) ?
inactive

Check the results log: what was the call for COc1ccc(C(=O)C2=CC(=O)C(=O)C2)cc1OC ?
inactive

Check the results log: what was the call for OB(O)c1ccccc1 ?
inactive
